- Assay notes: Toxicokinetics, plasma LPM3480392 after intravenous administration
- Type: in vivo, Sprague Dawley (SD) rats
- Assay context: both sexes, Sprague-Dawley, rat, plasma, intravenous, 0.6 mg/kg/day, 0.6 mg/kg/day iv; 1st dosing day; F + M; read-out: C2min (The 2nd dosing)
Parameter measured: concentration at 2 min (ng/mL)
One number for each entry, in ng/mL.

Ask | Note down concentration at 2 min recorded for `Fc1ccc([C@]2(CCNCc3cccc(Cl)c3)CCO[C@]3(CCOC3)C2)nc1`
Reply | 68.4

* * *

- Assay notes: Toxicokinetics, plasma LPM3480392 after intravenous administration
- Type: in vivo, Sprague Dawley (SD) rats
- Assay context: both sexes, Sprague-Dawley, rat, plasma, iv, 0.6 mg/kg/day, female + male; 0.6 mg/kg/day; Day 28; read-out: Mean AUC0–12h
Parameter measured: AUC(0-t) (ng·h/mL)
Numbers only, in ng·h/mL.

Ask | Note down AUC(0-t) recorded for Fc1ccc([C@]2(CCNCc3cccc(Cl)c3)CCO[C@]3(CCOC3)C2)nc1 [LPM3480392]
Reply | 349

* * *

- Assay notes: Toxicokinetics, plasma LPM3480392 after intravenous administration
- Type: in vivo, Sprague Dawley (SD) rats
- Assay context: female, Sprague-Dawley, rat, plasma, intravenous, 1.2 mg/kg/day, 1.2 mg/kg/day iv; 28th dosing day; F; read-out: C2min (The 2nd dosing)
Parameter measured: concentration at 2 min (ng/mL)
One number for each entry, in ng/mL.

Ask | Note down concentration at 2 min recorded for Fc1ccc([C@]2(CCNCc3cccc(Cl)c3)CCO[C@]3(CCOC3)C2)nc1 [LPM3480392]
Reply | 167

* * *

- Assay notes: Toxicokinetics, plasma LPM3480392 after intravenous administration
- Type: in vivo, Sprague Dawley (SD) rats
- Assay context: female, Sprague-Dawley, rat, plasma, intravenous, 0.6 mg/kg/day, 0.6 mg/kg/day iv; 1st dosing day; F; read-out: C2min (The 2nd dosing)
Parameter measured: concentration at 2 min (ng/mL)
Give bare numbers, in ng/mL.

Ask | Note down concentration at 2 min recorded for Fc1ccc([C@]2(CCNCc3cccc(Cl)c3)CCO[C@]3(CCOC3)C2)nc1 [LPM3480392]
Reply | 66.2

* * *

- Assay notes: Toxicokinetics, plasma LPM3480392 after intravenous administration
- Assay type: in vivo, Sprague Dawley (SD) rats
- Assay context: female, Sprague-Dawley, rat, plasma, intravenous, 0.6 mg/kg/day, 0.6 mg/kg/day iv; 28th dosing day; F; read-out: C2min (The 1st dosing)
- Procedure: Blood samples from animals in LPM3480392 groups were collected at predose and 2 min, 30 min, 1 h and 4 h postdose of the 1st dosing on Days 1 and 28; at 2 min and 4 h postdose of the 2nd dosing on Days 1 and 28; at 2 min, 1 h and 4 h postdose the 3rd dosing on Days 1 and 28. Animals in control group were sampled at predose and 2 min postdose of the 1st dosing on Days 1 and 28. […] TK parameters (AUC, Cmax, Tmax) were calculated by Phoenix WinNonlin (Pharsight) 8.2. […]
Parameter measured: concentration at 2 min
Units required after the number.

Ask | Note down concentration at 2 min recorded for `Fc1ccc([C@]2(CCNCc3cccc(Cl)c3)CCO[C@]3(CCOC3)C2)nc1`
Reply | 90.1 ng/mL

* * *

- Assay notes: Toxicokinetics, plasma LPM3480392 after intravenous administration
- Type: in vivo, Sprague Dawley (SD) rats
- Assay context: both sexes, Sprague-Dawley, rat, plasma, intravenous, 2.4 mg/kg/day, 2.4 mg/kg/day iv; 1st dosing day; F + M; read-out: C2min (The 3rd dosing)
Parameter measured: concentration at 2 min (ng/mL)
Give bare numbers, in ng/mL.

Ask | Note down concentration at 2 min recorded for Fc1ccc([C@]2(CCNCc3cccc(Cl)c3)CCO[C@]3(CCOC3)C2)nc1 [LPM3480392]
Reply | 229

* * *

- Assay notes: Toxicokinetics, plasma LPM3480392 after intravenous administration
- Type: in vivo, Sprague Dawley (SD) rats
- Assay context: male, Sprague-Dawley, rat, plasma, intravenous, 0.6 mg/kg/day, 0.6 mg/kg/day iv; 1st dosing day; M; read-out: C2min (The 3rd dosing)
Parameter measured: concentration at 2 min

Ask | Note down concentration at 2 min recorded for `Fc1ccc([C@]2(CCNCc3cccc(Cl)c3)CCO[C@]3(CCOC3)C2)nc1`
Reply | 64.7 ng/mL

* * *

- Assay notes: Toxicokinetics, plasma LPM3480392 after intravenous administration
- Type: in vivo, Sprague Dawley (SD) rats
- Assay context: male, Sprague-Dawley, rat, plasma, intravenous, 2.4 mg/kg/day, 2.4 mg/kg/day iv; 28th dosing day; M; read-out: C2min (The 3rd dosing)
Parameter measured: concentration at 2 min (ng/mL)
Answers are plain numbers, in ng/mL.

Ask | Note down concentration at 2 min recorded for Fc1ccc([C@]2(CCNCc3cccc(Cl)c3)CCO[C@]3(CCOC3)C2)nc1 [LPM3480392]
Reply | 317

* * *

- Assay notes: Toxicokinetics, plasma LPM3480392 after intravenous administration
- Type: in vivo, Sprague Dawley (SD) rats
- Assay context: male, Sprague-Dawley, rat, plasma, intravenous, 2.4 mg/kg/day, 2.4 mg/kg/day iv; 1st dosing day; M; read-out: C2min (The 2nd dosing)
- Description: Blood samples from animals in LPM3480392 groups were collected at predose and 2 min, 30 min, 1 h and 4 h postdose of the 1st dosing on Days 1 and 28; at 2 min and 4 h postdose of the 2nd dosing on Days 1 and 28; at 2 min, 1 h and 4 h postdose the 3rd dosing on Days 1 and 28. Animals in control group were sampled at predose and 2 min postdose of the 1st dosing on Days 1 and 28. […] TK parameters (AUC, Cmax, Tmax) were calculated by Phoenix WinNonlin (Pharsight) 8.2. […]
Parameter measured: concentration at 2 min (µg/mL)
Numbers only, in µg/mL.

Ask | Note down concentration at 2 min recorded for Fc1ccc([C@]2(CCNCc3cccc(Cl)c3)CCO[C@]3(CCOC3)C2)nc1 [LPM3480392]
Reply | 0.289

* * *

- Assay notes: Toxicokinetics, plasma LPM3480392 after intravenous administration
- Type: in vivo, Sprague Dawley (SD) rats
- Assay context: male, Sprague-Dawley, rat, plasma, iv, 2.4 mg/kg/day, 2.4 mg/kg/day iv; 1st dosing day; M; read-out: AUC0–12h
Parameter measured: AUC(0-t) (ng·h/mL)
Answers are plain numbers, in ng·h/mL.

Ask | Note down AUC(0-t) recorded for `Fc1ccc([C@]2(CCNCc3cccc(Cl)c3)CCO[C@]3(CCOC3)C2)nc1`
Reply | 1190

* * *

- Assay notes: Toxicokinetics, plasma LPM3480392 after intravenous administration
- Type: in vivo, Sprague Dawley (SD) rats
- Assay context: male, Sprague-Dawley, rat, plasma, intravenous, 1.2 mg/kg/day, 1.2 mg/kg/day iv; 1st dosing day; M; read-out: C2min (The 2nd dosing)
Parameter measured: concentration at 2 min (ng/mL)
One number for each entry, in ng/mL.

Ask | Note down concentration at 2 min recorded for `Fc1ccc([C@]2(CCNCc3cccc(Cl)c3)CCO[C@]3(CCOC3)C2)nc1`
Reply | 142

* * *

- Assay notes: Toxicokinetics, plasma LPM3480392 after intravenous administration
- Format: in vivo, Sprague Dawley (SD) rats
- Assay context: male, Sprague-Dawley, rat, plasma, intravenous, 1.2 mg/kg/day, 1.2 mg/kg/day iv; 28th dosing day; M; read-out: C2min (The 2nd dosing)
- Method: Blood samples from animals in LPM3480392 groups were collected at predose and 2 min, 30 min, 1 h and 4 h postdose of the 1st dosing on Days 1 and 28; at 2 min and 4 h postdose of the 2nd dosing on Days 1 and 28; at 2 min, 1 h and 4 h postdose the 3rd dosing on Days 1 and 28. Animals in control group were sampled at predose and 2 min postdose of the 1st dosing on Days 1 and 28. […] TK parameters (AUC, Cmax, Tmax) were calculated by Phoenix WinNonlin (Pharsight) 8.2. […]
Parameter measured: concentration at 2 min (ng/mL)
One number for each entry, in ng/mL.

Ask | Note down concentration at 2 min recorded for `Fc1ccc([C@]2(CCNCc3cccc(Cl)c3)CCO[C@]3(CCOC3)C2)nc1`
Reply | 113

* * *

- Assay notes: Toxicokinetics, plasma LPM3480392 after intravenous administration
- Type: in vivo, Sprague Dawley (SD) rats
- Assay context: male, Sprague-Dawley, rat, plasma, iv, 1.2 mg/kg/day, 1.2 mg/kg/day iv; 28th dosing day; M; read-out: AUC0–12h
Parameter measured: AUC(0-t) (ng·h/mL)
Numbers only, in ng·h/mL.

Ask | Note down AUC(0-t) recorded for `Fc1ccc([C@]2(CCNCc3cccc(Cl)c3)CCO[C@]3(CCOC3)C2)nc1`
Reply | 625

* * *

- Assay notes: Toxicokinetics, plasma LPM3480392 after intravenous administration
- Format: in vivo, Sprague Dawley (SD) rats
- Assay context: both sexes, Sprague-Dawley, rat, plasma, intravenous, 2.4 mg/kg/day, 2.4 mg/kg/day iv; 1st dosing day; F + M; read-out: C2min (The 2nd dosing)
Parameter measured: concentration at 2 min (ng/mL)
Answers are plain numbers, in ng/mL.

Ask | Note down concentration at 2 min recorded for `Fc1ccc([C@]2(CCNCc3cccc(Cl)c3)CCO[C@]3(CCOC3)C2)nc1`
Reply | 290
